Assay type: physicochemical, Sphingobium japonicum UT26
details: compared to the wild type LinB
Method: Circular dichroism spectra were recorded at 20° C. using a Jasco J-810 spectrometer (Jasco, Tokyo, Japan) coupled with Peltier temperature controller. Data were collected from 185 to 260 nm, at 100 nm/min, 1 s response time and 2 nm bandwidth using a 0.1 cm quartz cuvette containing the enzyme variant in 50 mM potassium phosphate buffer (pH 7.5). Each spectrum shown is the average of ten individual scans and was corrected for absorbance caused by the buffer. […]
property name: ΔTm (°C)

{"molecule": "L177K: LinB variant in the position 177 (protein, UniProt D4Z2G1 2-296, looked up, variant L177K) Haloalkane dehalogenase: SLGAKPFGEKKFIEIKGRRMAYIDEGTGDPILFQHGNPTSSYLWRNIMPHCAGLGRLIACDLIGMGDSDKLDPSGPERYAYAEHRDYLDALWEALDLGDRVVLVVHDWGSALGFDWARRHRERVQGIAYMEAIAMPIEWADFPEQDRDLFQAFRSQAGEELVLQDNVFVEQVLPGKILRPLSEAEMAAYREPFLAAGEARRPTLSWPRQIPIAGTPADVVAIARDYAGWLSESPIPKLFINAEPGALTTGRMRDFCRTWPNQTEITVAGAHFIQEDSPDEIGAAIAAFVRRLRPA", "property name": "ΔTm", "unit info": "°C", "result value": 3.0}
